target or test system: GluN1-1a/GluN2A NMDAR (Rattus norvegicus, UniProt P35439+Q00959)
Construct: expressed in transfected cells; host or cells: Xenopus laevis oocytes, injected with cRNA or plasmid DNA (pRK7 or pBluescript SK(-))
Sequence (Q00959 20-1464 limits assumed, other chains not shown): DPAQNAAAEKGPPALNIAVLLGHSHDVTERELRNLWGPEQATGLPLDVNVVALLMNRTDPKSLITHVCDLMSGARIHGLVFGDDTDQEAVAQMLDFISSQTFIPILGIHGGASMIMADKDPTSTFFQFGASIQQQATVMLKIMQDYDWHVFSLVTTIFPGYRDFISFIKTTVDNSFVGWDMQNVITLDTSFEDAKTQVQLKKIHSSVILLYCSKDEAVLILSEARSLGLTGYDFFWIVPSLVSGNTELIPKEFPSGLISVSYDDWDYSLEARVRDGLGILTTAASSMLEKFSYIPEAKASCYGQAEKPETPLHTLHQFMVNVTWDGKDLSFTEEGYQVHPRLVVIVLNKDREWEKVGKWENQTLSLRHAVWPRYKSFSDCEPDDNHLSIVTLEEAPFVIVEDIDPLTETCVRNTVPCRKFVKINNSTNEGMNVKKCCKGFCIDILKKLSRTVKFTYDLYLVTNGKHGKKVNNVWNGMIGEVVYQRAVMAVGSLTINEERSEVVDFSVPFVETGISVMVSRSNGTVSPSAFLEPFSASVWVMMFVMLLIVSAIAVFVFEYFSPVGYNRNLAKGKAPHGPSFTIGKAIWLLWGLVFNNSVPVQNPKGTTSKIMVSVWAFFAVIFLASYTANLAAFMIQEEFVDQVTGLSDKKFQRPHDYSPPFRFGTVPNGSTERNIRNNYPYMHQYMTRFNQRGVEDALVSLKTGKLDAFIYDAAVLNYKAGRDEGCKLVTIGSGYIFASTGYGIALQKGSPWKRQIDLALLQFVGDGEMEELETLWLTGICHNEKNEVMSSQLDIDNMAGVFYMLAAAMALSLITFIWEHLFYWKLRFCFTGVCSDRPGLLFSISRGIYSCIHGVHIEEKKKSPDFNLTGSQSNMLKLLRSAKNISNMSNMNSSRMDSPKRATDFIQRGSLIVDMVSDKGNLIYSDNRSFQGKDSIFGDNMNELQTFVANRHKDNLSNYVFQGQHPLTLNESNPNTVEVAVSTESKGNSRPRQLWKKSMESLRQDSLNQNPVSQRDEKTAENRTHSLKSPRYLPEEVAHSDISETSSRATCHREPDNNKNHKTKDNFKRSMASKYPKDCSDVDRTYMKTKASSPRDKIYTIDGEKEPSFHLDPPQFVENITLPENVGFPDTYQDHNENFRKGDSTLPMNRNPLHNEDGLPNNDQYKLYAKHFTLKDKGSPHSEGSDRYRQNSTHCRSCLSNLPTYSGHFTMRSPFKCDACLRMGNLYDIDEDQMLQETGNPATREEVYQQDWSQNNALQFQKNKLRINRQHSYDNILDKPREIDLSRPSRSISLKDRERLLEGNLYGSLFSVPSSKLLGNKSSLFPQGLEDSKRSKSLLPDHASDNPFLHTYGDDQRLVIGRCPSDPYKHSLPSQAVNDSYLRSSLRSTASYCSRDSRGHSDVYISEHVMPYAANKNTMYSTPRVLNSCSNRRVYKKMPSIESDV
test name: TEVC electrophysiology of Xenopus oocytes expressing GluN1-1a/GluN2A
Format: cell-based
study conditions: 10 μM glycine, absence of CPF, n = 5; read-out: NMDA EC50
measured attribute: pEC50
Give bare numbers, as −log10 of the molar value.

Asked: // pEC50 lookup, key: CN[C@H](CC(=O)O)C(=O)O [NMDA, N-methyl-D-aspartate]
Given back: 4.24

----------
target or test system: GluN1-1a/GluN2B NMDAR (Rattus norvegicus, UniProt P35439+Q00960)
Construct: expressed in transfected cells; host or cells: Xenopus laevis oocytes, injected with cRNA or plasmid DNA (pRK7 or pBluescript SK(-))
Sequence (Q00960 27-1482, other chains not shown): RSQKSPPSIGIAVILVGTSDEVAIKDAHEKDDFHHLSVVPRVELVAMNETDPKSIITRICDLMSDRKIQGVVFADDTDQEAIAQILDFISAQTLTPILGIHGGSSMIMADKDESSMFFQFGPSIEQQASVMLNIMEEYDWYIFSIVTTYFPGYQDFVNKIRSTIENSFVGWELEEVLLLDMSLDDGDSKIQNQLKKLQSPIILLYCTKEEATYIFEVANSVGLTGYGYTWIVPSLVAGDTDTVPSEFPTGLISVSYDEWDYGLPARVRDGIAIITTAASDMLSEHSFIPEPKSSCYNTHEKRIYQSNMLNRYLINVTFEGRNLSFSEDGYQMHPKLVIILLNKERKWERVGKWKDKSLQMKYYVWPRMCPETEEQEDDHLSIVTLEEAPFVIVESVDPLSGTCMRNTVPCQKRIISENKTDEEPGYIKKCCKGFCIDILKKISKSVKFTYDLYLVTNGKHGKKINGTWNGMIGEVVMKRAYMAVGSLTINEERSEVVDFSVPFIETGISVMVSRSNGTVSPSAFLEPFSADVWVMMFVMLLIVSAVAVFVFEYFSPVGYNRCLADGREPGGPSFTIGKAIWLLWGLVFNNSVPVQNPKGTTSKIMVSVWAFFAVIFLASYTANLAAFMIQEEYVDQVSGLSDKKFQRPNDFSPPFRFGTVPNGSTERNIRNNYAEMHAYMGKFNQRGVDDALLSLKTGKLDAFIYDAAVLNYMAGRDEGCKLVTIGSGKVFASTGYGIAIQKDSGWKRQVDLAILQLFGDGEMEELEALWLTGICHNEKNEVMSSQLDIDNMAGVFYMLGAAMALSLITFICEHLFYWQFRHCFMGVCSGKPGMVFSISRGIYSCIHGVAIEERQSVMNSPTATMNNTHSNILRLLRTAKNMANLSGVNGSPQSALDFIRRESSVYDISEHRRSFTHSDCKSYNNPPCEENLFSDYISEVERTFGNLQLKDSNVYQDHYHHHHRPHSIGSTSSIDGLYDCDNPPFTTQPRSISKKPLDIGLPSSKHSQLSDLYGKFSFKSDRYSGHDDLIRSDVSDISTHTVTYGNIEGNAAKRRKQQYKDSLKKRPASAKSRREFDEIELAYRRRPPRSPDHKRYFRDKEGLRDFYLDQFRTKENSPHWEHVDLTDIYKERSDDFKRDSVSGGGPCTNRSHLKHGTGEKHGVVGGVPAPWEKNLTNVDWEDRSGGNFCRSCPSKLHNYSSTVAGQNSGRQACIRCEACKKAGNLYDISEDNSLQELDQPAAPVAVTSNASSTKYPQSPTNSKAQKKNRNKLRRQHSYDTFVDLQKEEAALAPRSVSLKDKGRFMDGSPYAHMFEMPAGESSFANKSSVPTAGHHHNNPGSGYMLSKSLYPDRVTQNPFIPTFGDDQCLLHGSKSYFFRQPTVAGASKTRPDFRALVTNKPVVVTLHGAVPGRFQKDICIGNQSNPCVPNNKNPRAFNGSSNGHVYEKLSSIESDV
test name: TEVC electrophysiology of Xenopus oocytes expressing GluN1-1a/GluN2B
Assay type: cell-based
study conditions: 10 μM glycine, absence of CPF, n = 6; read-out: NMDA EC50
measured attribute: pEC50
One number for each entry, as −log10 of the molar value.

Asked: Please report the recorded pEC50 for CN[C@H](CC(=O)O)C(=O)O [NMDA, N-methyl-D-aspartate] .
Given back: 4.15

----------
target or test system: GluN1-1a/GluN2A NMDAR (Rattus norvegicus, UniProt P35439+Q00959)
Construct: expressed in transfected cells; host or cells: Xenopus laevis oocytes, injected with cRNA or plasmid DNA (pRK7 or pBluescript SK(-))
test name: TEVC electrophysiology of Xenopus oocytes expressing GluN1-1a/GluN2A
Type: cell-based
pEC50: −log10 of the molar value.
measured attribute: pEC50

Asked: Can you look up the measured pEC50 of `CCOP(=S)(OCC)Oc1nc(Cl)c(Cl)cc1Cl` for me?
Given back: ~7.40

----------
test name: Three-color fluorescence (FDA/PI) live, dead and apoptotic cell staining
Assay type: cell-based, human
study conditions: human, 14 μM CPF, control 96.4%, p < 0.001, read-out: cell viability (live cells)
measured attribute: viability at 24 h, 14 μM (%)
One number for each entry, in %.

Asked: Recorded viability at 24 h, 14 μM for `CCOP(=S)(OCC)Oc1nc(Cl)c(Cl)cc1Cl` , please?
Given back: 71.4
